test system: CP260; assay: qHTS profiling for inhibitors of Plasmodium falciparum proliferation (AID 504749); further: nearly all actives have a fitted effect of over 60% in size; further: potency means the concentration at half of the fitted maximal effect; conditions: P. falciparum in erythrocytes, SYBR Green DNA, 72 h; series mostly up to 28.7 µM
Records with an inconclusive call do not appear. The source made the active and inactive calls. The call rests on the fitted dose curve; in most records, active means well fitted inhibition curve with a large enough effect; inconclusive means small, poorly fitted or top-dose-only effect; inactive means flat fitted curve, though single readings scatter.
measured attribute: Potency

Known results for compounds:
In [3]: df
Out[3]:
                                   compound  assay_target  measured_attribute    value_measured
0                            Cc1cc(O)ccc1Cl         CP260             Potency          inactive
1  C=CCN1CC[C@]23CCCCC2[C@H]1Cc1ccc(O)cc13 (some centres undefined)         CP260             Potency          inactive
2               CCCCCCCCCCCCCCCC[N+](C)(C)C         CP260             Potency  5.62 µM (active)
3                       C1CCC(NC2CCCCC2)CC1         CP260             Potency          inactive
4              CCCN1CCC[C@H](c2cccc(O)c2)C1         CP260             Potency          inactive
5                      CCCCc1ccc(C(=O)O)nc1         CP260             Potency          inactive

Give Potency for all compounds that follow.
1. CN1C2CCC1CC(OC(=O)c1cc(Cl)cc(Cl)c1)C2 (centres undefined)
2. CC(=O)[O][Hg][c]1ccccc1
3. O=[N+]([O-])c1ccc([As](=O)(O)O)cc1

stdout:
1. inactive
2. 3.98 µM (active)
3. 7.08 µM (active)
